Reported koff values are given for each entry in this list.
Target: T1, soluble Macaca fascicularis CTLA-4 expressed with a C-terminal myc-myc-polyhistidine tag (Macaca fascicularis)
T1 construct: soluble protein; also called mf CTLA-4.mmh; mfCTLA4.mmh
T1 chain: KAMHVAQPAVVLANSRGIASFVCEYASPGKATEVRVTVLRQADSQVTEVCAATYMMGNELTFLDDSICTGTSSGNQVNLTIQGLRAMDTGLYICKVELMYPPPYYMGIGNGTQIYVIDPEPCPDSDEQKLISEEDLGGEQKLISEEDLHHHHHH
Test: SPR, mAb capture, 25 C

BINDER | koff / s⁻¹
H1H19291P (antibody, human IgG1, V domains shown) VH: QVQLVESGGGVVQPGRSLRLSCAASGFTFSTYGMHWVRQAPGKGLEWVTVIWYDGNNKYYADSVKGRFTISRDNSKNTLYLQMNNLRAEDTALYYCARGGGRLSYYHDYWGQGTLVTVSS VL: DIQMTQSPSSLSASVGDRVTITCRASQSISTFLNWYQQKPGKAPNLLIYGTSSLQSGVPSRFSGSGSGTDFTLTISSLQPEDFAAYYCQQTYSTPFTFGPGTKVDIK | 0.00121
H1H19312P (antibody, human IgG1, V domains shown) VH: QVQLQESGPGLVKPSETLSLTCTVSGGSISSYHWSWIRQPLGKGLEWIGYIYYSGSTNYNPSLKSRVTISVDTSKNQFSLKLSSVTAADTAVYYCARGGSSIWPFDYWGQGTLVTVSS VL: DIQMTQSPSTLSASVGDRVTITCRASQSISSWLAWYQQKSGKAPKLLISKASTLESGVPSRFSGSGSGTEFTLTISSLQPDDFATYYCQQYNIYSWTFGQGTKVEIK | 0.00076
H1H19264P (antibody, human IgG1, V domains shown) VH: QVQLVQSGAEVKKPGASVKVSCKASDYTFTSYGISWVRQAPGQGLEWMGWISVYNGNINYAQKFKGRVTMTTDTSTSTAYMELRSLRSDDMAVYYCARVTQFGMDVWGQGTTVTVSS VL: DIQMTQSPSSLSASVGDRVTITCRASQSISSNLNWYQQNPGKAPKLLIYTTSSLQGGVPSRFSGSGSGTDFTLTISSLQPEDFATYYCQQSFRTPFTFGPGTKVDIK | 0.000994
H1H19278P (antibody, human IgG1, V domains shown) VH: QVQLVESGGGVVQPGRSLRLSCAASGFTFSSYGMNWVRQAPGKGLEWVAVTWYDGSNKHYADSVKGRFTISRDNSKNTLYLQMYSLRAEDTAMYYCVRGGHLGAFDIWGQGTMVTVSS VL: EIVLTQSPGTLSLSPGERATLSCRASQSVSSYLAWYQQKPGQAPRLLIYGASSRATGIPDRFSGGGSGTDFTLTISRLEPEDFAVYYCQQYGSSPFTFGPGTKVDIK | 0.00101
H1H19294P (antibody, human IgG1, V domains shown) VH: QVQLVQSGAEVKMSGASVRVSCKASGYTFTSYGISWMRQAPGQGLEWMGWITAYNGNSNYAQKLQGRVTMTTDTSTGTAYMELRSLTSDDTAVYYCARRGDYLGVFPYWGQGTLVTVSS VL: DIQMTQSPSSLSASVGDRVTITCRASQSISSYLNWYQQKPGKAPNLLIYTASSLQSGVPSRFSGSGSGTDFTLTISSLQPEDFATYYCQQSYSSPLTFGGGTKVEIK | 0.000269
H1H19307P (antibody, human IgG1, V domains shown) VH: EVQLVESGGGLVQPGGSLRLACAASGFTFSDYYMDWVRQVPGKGLEWVGRSRDKANSFTTEYVASVKGRFTISREDSKNSVYLQMNSLKTEDTAVYYCARTNYDFSLDVWGQGTTVTVSS VL: DIQMTQSPSSLSASVGDRVTITCRASQDINNYLAWFQQKPGNAPKSLIYAASSLQSGVPSKFSGSGSGTDFTLTISSLQPEDFATYYCQQYSTYPITFGQGTRLEIK | 0.000292
